Target: pooled human IgG
Task for the reader: assign each of the following proteins its reported Enzyme Activity Endpoint Assay (purified): scIgG.
Express it in ng/µL; write the number only.

Prompt: Retrieve Enzyme Activity Endpoint Assay (purified): scIgG measured for PRT-138 (protein) MRNATEAYAKEVPHQITSVWTKGVTPPTPEQFRYNNEDVIHAPYLAHQGWYDITKAFDGKDNLLCGAATAGNMLHWWFDQNKTEIEAYLSKHPEKQKIIFNNQELFDLKAAIDTKDSQTNSQLFNYFRDKAFPNLSARQLGVMPDLVLDMFINGYYLNVFKTQSTDVNRPYQDKDKRGGIFDAVFTRGDQTTLLTARHDLKNKGLNDISTIIKQELTEGRALALSHTYANVSISHVINLWGADFNAEGNLEAIYVTDSDANASIGMKKYFVGINAHGHVAISAKKIEGENIGAQVLGLFTLSSGKDIWQKLS and print it.
Completion: 144

Prompt: Supply Enzyme Activity Endpoint Assay (purified): scIgG value. Item: PRT-114 (protein) MRNATEAYNEETPHQITSVWTKGVTPPTPEQFRYNNEDVIHAPYLANQGWYDITKTFNGKDNLLCGAATAGNMLHWWFDQNKTEIEAYLSKHPEKQKIIFNNQELFDLKAAIDTKDSQTNSQLFNYFREKAFPNLSARQLGVMPDLVLDMFINGYYLNVTKTQSTDVNRPYQDKDKRGGIFDAVFTRGDQTKLLTARHDLKNKTLNEISTLIKQELTEGRALALSHTYANVSISHVINLWGADFNAEGNLEAIYVTDSDANASIGMKKYFVGVNAAGHVAISAKKIEGENIGAQVLGLFTLSSGKDIWQKLS
Completion: 111

Numbers sourced from patent US20250027068.
